test: Biodistribution studies incl. blocking experiments; format: in vivo; conditions: healthy BALB/c mice, 60 min p.i.
Attribute Measured: Biodistribution Stomach (% ID/g)
A number alone suffices; assume % ID/g.

The examples below pair each entry with its known result.
• O=C(O)CN1CCN(CC(=O)O)CCN([C@H](CCC(=O)NCCCC(=O)NC(COCc2cn(CCOCCOCCO[C@@H]3O[C@H](CO)[C@H](O)[C@H](O)[C@H]3O)nn2)(COCc2cn(CCOCCOCCO[C@@H]3O[C@H](CO)[C@H](O)[C@H](O)[C@H]3O)nn2)COCc2cn(CCOCCOCCO[C@@H]3O[C@H](CO)[C@H](O)[C@H](O)[C@H]3O)nn2)C(=O)O)CC1 [[^68Ga]Ga-NODAGA-TriGalactan, metal not drawn] = 0.92
• O=C(CCP(=O)([O-])CN1CCN(CP(=O)([O-])CCC(=O)NCc2cn(CCOCCOCCO[C@@H]3O[C@H](CO)[C@@H](O)[C@H](O)[C@H]3O)nn2)CCN(CP(=O)([O-])CCC(=O)NCc2cn(CCOCCOCCO[C@@H]3O[C@H](CO)[C@@H](O)[C@H](O)[C@H]3O)nn2)CC1)NCc1cn(CCOCCOCCO[C@@H]2O[C@H](CO)[C@@H](O)[C@H](O)[C@H]2O)nn1.[68Ga+3] [[^68Ga]Ga-TRAP-Gluco, reference compound] = 0.09
• O=C(CCP(=O)([O-])CN1CCN(CP(=O)([O-])CCC(=O)NCc2cn([C@@H]3O[C@H](CO)[C@H](O)[C@H](O)[C@H]3O)nn2)CCN(CP(=O)([O-])CCC(=O)NCc2cn([C@@H]3O[C@H](CO)[C@H](O)[C@H](O)[C@H]3O)nn2)CC1)NCc1cn([C@@H]2O[C@H](CO)[C@H](O)[C@H](O)[C@H]2O)nn1.[68Ga+3] [[^68Ga]Ga-Galacto-TRAP] = 0.11
• CC(=O)N[C@H]1[C@H](OCCOCCOCCn2cc(CNC(=O)CCP(=O)([O-])CN3CCN(CP(=O)([O-])CCC(=O)NCc4cn(CCOCCOCCO[C@@H]5O[C@H](CO)[C@H](O)[C@H](O)[C@H]5NC(C)=O)nn4)CCN(CP(=O)([O-])CCC(=O)NCc4cn(CCOCCOCCO[C@@H]5O[C@H](CO)[C@H](O)[C@H](O)[C@H]5NC(C)=O)nn4)CC3)nn2)O[C@H](CO)[C@H](O)[C@@H]1O.[68Ga+3] [[^68Ga]Ga-TRAP-GalNAc] = 0.54

**Q:** Suppose we examine the compound O=C(CCP(=O)([O-])CN1CCN(CP(=O)([O-])CCC(=O)NCc2cn(CCOCCOCCO[C@@H]3O[C@H](CO)[C@H](O)[C@H](O)[C@H]3O)nn2)CCN(CP(=O)([O-])CCC(=O)NCc2cn(CCOCCOCCO[C@@H]3O[C@H](CO)[C@H](O)[C@H](O)[C@H]3O)nn2)CC1)NCc1cn(CCOCCOCCO[C@@H]2O[C@H](CO)[C@H](O)[C@H](O)[C@H]2O)nn1.[68Ga+3] [[^68Ga]Ga-TRAP-Galactan] ; what Biodistribution Stomach value has been reported?
**A:** 0.31

###

assay: Biodistribution studies incl. blocking experiments; format: in vivo; settings: healthy BALB/c mice, 30 min p.i.
Attribute Measured: Biodistribution Kidneys (% ID/g)
A number alone suffices; assume % ID/g.

The examples below pair each entry with its known result.
- CC(=O)N[C@H]1[C@H](OCCOCCOCCn2cc(CNC(=O)CCP(=O)([O-])CN3CCN(CP(=O)([O-])CCC(=O)NCc4cn(CCOCCOCCO[C@@H]5O[C@H](CO)[C@H](O)[C@H](O)[C@H]5NC(C)=O)nn4)CCN(CP(=O)([O-])CCC(=O)NCc4cn(CCOCCOCCO[C@@H]5O[C@H](CO)[C@H](O)[C@H](O)[C@H]5NC(C)=O)nn4)CC3)nn2)O[C@H](CO)[C@H](O)[C@@H]1O.[68Ga+3] [[^68Ga]Ga-TRAP-GalNAc]: 1.68
- O=C(CCP(=O)([O-])CN1CCN(CP(=O)([O-])CCC(=O)NCc2cn(CCOCCOCCO[C@@H]3O[C@H](CO)[C@@H](O)[C@H](O)[C@H]3O)nn2)CCN(CP(=O)([O-])CCC(=O)NCc2cn(CCOCCOCCO[C@@H]3O[C@H](CO)[C@@H](O)[C@H](O)[C@H]3O)nn2)CC1)NCc1cn(CCOCCOCCO[C@@H]2O[C@H](CO)[C@@H](O)[C@H](O)[C@H]2O)nn1.[68Ga+3] [[^68Ga]Ga-TRAP-Gluco, reference compound]: 3.95

Attention now turns to another entry.
**Q:** Suppose we examine the compound O=C(O)CN1CCN(CC(=O)O)CCN([C@H](CCC(=O)NCCCC(=O)NC(COCc2cn(CCOCCOCCO[C@@H]3O[C@H](CO)[C@H](O)[C@H](O)[C@H]3O)nn2)(COCc2cn(CCOCCOCCO[C@@H]3O[C@H](CO)[C@H](O)[C@H](O)[C@H]3O)nn2)COCc2cn(CCOCCOCCO[C@@H]3O[C@H](CO)[C@H](O)[C@H](O)[C@H]3O)nn2)C(=O)O)CC1 [[^68Ga]Ga-NODAGA-TriGalactan, metal not drawn] ; what Biodistribution Kidneys value has been reported?
**A:** 2.83
